# System: B. subtilis DSM 10
measured.parameter: MIC (µg/mL)

compound	units.symbol	experimental.value
COc1c(NC(=O)c2ccc(NC(=O)c3ccc(NC(=O)[C@H](Cc4c[nH]nn4)NC(=O)c4ccc(NC(=O)/C(C)=C/c5ccc(O)cc5)cc4)cc3Cl)c(OC)c2O)ccc(C(=O)O)c1O [Compound 3]	µg/mL	0.063
COc1c(NC(=O)c2ccc(NC(=O)c3ccc(NC(=O)[C@H](Cc4c[nH]nn4)NC(=O)c4ccc(NC(=O)/C(C)=C/c5ccc(O)cc5)cc4)cc3C(F)(F)F)c(OC)c2O)ccc(C(=O)O)c1O [Compound 5]	µg/mL	4
COc1c(NC(=O)c2ccc(NC(=O)c3ccc(NC(=O)[C@H](Cc4c[nH]nn4)NC(=O)c4ccc(NC(=O)/C(C)=C/c5ccc(O)cc5)cc4)cc3Br)c(OC)c2O)ccc(C(=O)O)c1O [Compound 6]	µg/mL	0.125
